Values compiled from ChEMBL document CHEMBL4706752.

# assay-details: Oral bioavailability in Sprague-Dawley rat at 4 mg/kg
# Assay type: ADME, organism-based
# study-conditions: in vivo
assay-metric: bioavailability (%)
One number for each entry, in %.

Determine its reported bioavailability: C[C@@](O)(CS(C)(=O)=O)C(=O)N[C@@H]1CC[C@@]2(S(=O)(=O)c3ccc(F)cc3)c3ccc(C(F)(C(F)(F)F)C(F)(F)F)nc3CC[C@@H]12
85

* * *

# assay-details: Protein binding in mouse serum assessed as fraction unbound
# Format: ADME, cell-free
# study-conditions: read-out: PB
Please provide measured fraction unbound for the entries that follow.
Numbers only.

Worked cases, answers included:
{"columns": ["compound-structure", "endpoint-result"],
 "data": [
  ["CC(C)(O)C(=O)N[C@@H]1CC[C@@]2(S(=O)(=O)c3ccc(F)cc3)c3ccc(C(F)(C(F)(F)F)C(F)(F)F)nc3CC[C@@H]12", 0.023],
  ["N#CCCN1C(=O)CC[C@H]1C(=O)N1CC[C@@]2(S(=O)(=O)c3ccc(F)cc3)c3ccc(C(F)(C(F)(F)F)C(F)(F)F)nc3CC[C@@H]12", 0.051],
  ["O=C(N[C@@H]1CC[C@@]2(S(=O)(=O)c3ccc(F)cc3)c3ccc(C(F)(C(F)(F)F)C(F)(F)F)nc3CC[C@@H]12)C1CCS(=O)(=O)CC1", 0.022],
  ["O=C(C1CCS(=O)(=O)CC1)N1CC[C@@]2(S(=O)(=O)c3ccc(F)cc3)c3ccc(C(F)(C(F)(F)F)C(F)(F)F)cc3CC[C@@H]12", 0.068]
]}

Now for the compound whose fraction unbound we want.
Note down fraction unbound recorded for N#CCCN1C(=O)CC[C@H]1C(=O)N1CC[C@@]2(S(=O)(=O)c3ccc(F)cc3)c3cnc(C(F)(C(F)(F)F)C(F)(F)F)cc3CC[C@@H]12
0.068

* * *

# assay-details: Clearance in cynomolgus monkey at 1 mg/kg, iv
# Format: ADME, organism-based, Macaca fascicularis
# study-conditions: in vivo
assay-metric: clearance (mL/min/kg)
Numbers only, in mL/min/kg.

Identify clearance associated with the compound C[C@@](O)(CS(C)(=O)=O)C(=O)N[C@@H]1CC[C@@]2(S(=O)(=O)c3ccc(F)cc3)c3ccc(C(F)(C(F)(F)F)C(F)(F)F)nc3CC[C@@H]12
2.8

* * *

# assay-details: Cmax in Sprague-Dawley rat at 4 mg/kg, po
# Format: ADME, organism-based
# Set-up: route oral, dose 4 mg/kg
# study-conditions: in vivo
assay-metric: Cmax
The reply should consist of the numeric value with the unit placed after it.

Look up and report measured Cmax for this entry: C[C@@](O)(CS(C)(=O)=O)C(=O)N[C@@H]1CC[C@@]2(S(=O)(=O)c3ccc(F)cc3)c3ccc(C(F)(C(F)(F)F)C(F)(F)F)nc3CC[C@@H]12
1600 nM

* * *

# target-desc: Nuclear receptor ROR-gamma (Homo sapiens, UniProt P51449)
# Sequence (P51449 whole entry): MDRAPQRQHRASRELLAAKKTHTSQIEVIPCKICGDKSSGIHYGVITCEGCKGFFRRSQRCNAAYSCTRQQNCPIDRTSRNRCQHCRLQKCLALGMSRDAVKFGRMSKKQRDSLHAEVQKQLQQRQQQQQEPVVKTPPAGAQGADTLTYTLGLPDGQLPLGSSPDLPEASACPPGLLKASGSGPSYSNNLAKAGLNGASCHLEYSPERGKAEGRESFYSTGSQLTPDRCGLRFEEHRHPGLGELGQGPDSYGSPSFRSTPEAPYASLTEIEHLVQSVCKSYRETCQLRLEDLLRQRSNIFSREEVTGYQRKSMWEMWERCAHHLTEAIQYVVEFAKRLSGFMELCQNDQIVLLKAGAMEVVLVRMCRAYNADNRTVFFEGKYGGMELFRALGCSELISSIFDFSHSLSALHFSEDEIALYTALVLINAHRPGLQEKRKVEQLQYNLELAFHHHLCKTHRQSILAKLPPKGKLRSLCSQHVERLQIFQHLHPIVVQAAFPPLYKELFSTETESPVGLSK
# assay-details: Inverse agonist activity at RORgammat in human whole blood assessed as inhibition of anti-CD3/anti-CD28 monoclonal antibodies-stimulated IL-17A production measured by ELISA
# Assay type: tissue-based
assay-metric: EC50 (nM)
Answers are plain numbers, in nM.

Known results for molecules:
{"columns": ["compound-structure", "result-units", "EC50"],
 "data": [
  ["C[C@@](O)(CS(C)(=O)=O)C(=O)N[C@@H]1CC[C@@]2(S(=O)(=O)c3ccc(F)cc3)c3ccc(C(F)(C(F)(F)F)C(F)(F)F)cc3CC[C@@H]12", "nM", 39],
  ["N#CCCN1C(=O)CC[C@H]1C(=O)N1CC[C@@]2(S(=O)(=O)c3ccc(F)cc3)c3ccc(C(F)(C(F)(F)F)C(F)(F)F)nc3CC[C@@H]12", "nM", 31],
  ["O=C(C1CCS(=O)(=O)CC1)N1CC[C@@]2(S(=O)(=O)c3ccc(F)cc3)c3cnc(C(F)(C(F)(F)F)C(F)(F)F)cc3CC[C@@H]12", "nM", 23],
  ["O=C(N[C@@H]1CC[C@@]2(S(=O)(=O)c3ccc(F)cc3)c3ccc(C(F)(C(F)(F)F)C(F)(F)F)nc3CC[C@@H]12)C1CCS(=O)(=O)CC1", "nM", 67],
  ["C[C@](O)(CS(C)(=O)=O)C(=O)N[C@@H]1CC[C@@]2(S(=O)(=O)c3ccc(F)cc3)c3ccc(C(F)(C(F)(F)F)C(F)(F)F)cc3CC[C@@H]12", "nM", 120],
  ["O=C(N[C@@H]1CC[C@@]2(S(=O)(=O)c3ccc(F)cc3)c3ccc(C(F)(C(F)(F)F)C(F)(F)F)cc3CC[C@@H]12)C1CCS(=O)(=O)CC1", "nM", 50],
  ["CC(C)(O)CC(=O)N[C@@H]1CC[C@@]2(S(=O)(=O)c3ccc(F)cc3)c3ccc(C(F)(C(F)(F)F)C(F)(F)F)nc3CC[C@@H]12", "nM", 101]
]}

Using Nuclear receptor ROR-gamma (Homo sapiens, UniProt P51449) as the test system, report measured EC50 of CC(C)(O)C(=O)N[C@@H]1CC[C@@]2(S(=O)(=O)c3ccc(F)cc3)c3ccc(C(F)(C(F)(F)F)C(F)(F)F)nc3CC[C@@H]12 .
67
